Test system: HPPD polypeptides
Assay: coupled HPPD activity assay: turnover and residual turnover in crude extracts
Format: biochemical, Pseudomonas fluorescens
Conditions: absence of Cmpd. 1; high substrate concentration; kinetic changes in absorbance (OD) at 320 nm, 30 min
Assign class by Turnover: not lower than 0.2 means 1; lower than 0.2 means -1.

Use these answered entries as a reference point.
>>> category("15 (protein, mutant HPPD polypeptide) MADLYENPMGLMGFEFIEFASPTPGTLEPIFEIMGFTKVATHRSKNVHLYRQGEINLILNNEPNSIASYFAAEHGPSVCGMAFRVKDSQKAYNRALELGAQPIHIDTGPMELNLPAIKGIGGAPLYLIDRFGEGSSIYDIDFVYLEGVERNPVGAGLKVIDHLTHNVYRGRMVYWANFYEKLFNFREARYFDIKGEYTGLTSKAMSAPDGMIRIPLNEESSKGAGQIEEFLMQFNGEGIQHVAFLTDDLVKTWDALKKIGMRFMTAPRDNYYEMLEGRLPDHGEPVDQLQARGILLDGSSVEGDKRLLLQIFSETLMGPVFFEFIQRKGDDGFGPDSFKVLFESVERDQVRRGVLTAD")
-1
>>> category("48 (protein, mutant HPPD polypeptide) MADLYENPMGLMGFEFIEFASPTPGTLEPIFEIMGFTKVATHRSKNVHLYRQGEINLILNNEPNSIASYFAAEHGPSVCGMAFRVKDSQKAYNRALELGAQPIHIDTGPMELNLPAIKGIGGAPLYLIDRFGEGSSIYDIDFVYLEGVERNPVGAGLKVIDHLTHNVYRGRMVYWANFYEKLFNFREARYFDIKGEYTGLTSKAMSAPDGMIRIPLNEESSKGAGQIEEFLMQFNGEGIQHVAFLTDDLVKTWDALKKIGMRFMTAPGDNYYEMLEGRLPDHGEPVDQLQARGILLDGSSVEGDKRLLLQIFSETLMGPVFFEFIQRKGDDGFGPHSFKVLFEQMERDQVRRGVLTAD")
1
>>> category("21 (protein, mutant HPPD polypeptide) MADLYENPMGLMGFEFIEFASPTPGTLEPIFEIMGFTKVATHRSKNVHLYRQGEINLILNNEPNSIASYFAAEHGPSVCGMAFRVKDSQKAYNRALELGAQPIHIDTGPMELNLPAIKGIGGAPLYLIDRFGEGSSIYDIDFVYLEGVERNPVGAGLKVIDHLTHNVYRGRMVYWANFYEKLFNFREARYFDIKGEYTGLTSKAMSAPDGMIRIPLNEESSKGAGQIEEFLMQFNGEGIQHVAFLTDDLVKTWDALKKIGMRFMTAPADTYYEMLEGRLPDHGEPVDQLQARGILLDGSSVEGDKRLLLQIFSETLMGPVFFEFIQRKGDDGFGPDSFKVLFEQVERDQVRRGVLTAD")
-1

Data request: Has 4 (protein, mutant HPPD polypeptide) MADLYENPMGLMGFEFIEFASPTPGTLEPIFEIMGFTKVATHRSKNVHLYRQGEINLILNNEPNSIASYFAAEHGPSVCGMAFRVKDSQKAYNRALELGAQPIHIDTGPMELNLPAIKGIGGAPLYLIDRFGEGSSIYDIDFVYLEGVERNPVGAGLKVIDHLTHNVYRGRMVYWANFYEKLFNFREARYFDIKGEYTGLTSKAMSAPDGMIRIPLNEESSKGAGQIEEFLMQFNGEGIQHVAFLTDDLVKTWDALKKIGMRFMTAPGDTYYEMLEGRLPDHGEPVDQLQARGILLDGSSVEGDKRLLLQIFSETLMGPVFFEFIQRKGDDGFGPDSFKVLFESIERDQVRRGVLTAD a recorded Turnover greater than or equal to 0.2?
Data returned: -1

Data request: Has 11 (protein, mutant HPPD polypeptide) MADLYENPMGLMGFEFIEFASPTPGTLEPIFEIMGFTKVATHRSKNVHLYRQGEINLILNNEPNSIASYFAAEHGPSVCGMAFRVKDSQKAYNRALELGAQPIHIDTGPMELNLPAIKGIGGAPLYLIDRFGEGSSIYDIDFVYLEGVERNPVGAGLKVIDHLTHNVYRGRMVYWANFYEKLFNFREARYFDIKGEYTGLTSKAMSAPDGMIRIPLNEESSKGAGQIEEFLMQFNGEGIQHVAFLTDDLVKTWDALKKIGMRFMTAPPDTYYEMLEGRLPDHGEPVDQLQARGILLDGSSVEGDKRLLLQIFSETLMGPVFFEFIQRKGDDGFGPDSFKVLFESVERDQVRRGVLTAD a recorded Turnover greater than or equal to 0.2?
Data returned: -1

Data request: Has 22 (protein, mutant HPPD polypeptide) MADLYENPMGLMGFEFIEFASPTPGTLEPIFEIMGFTKVATHRSKNVHLYRQGEINLILNNEPNSIASYFAAEHGPSVCGMAFRVKDSQKAYNRALELGAQPIHIDTGPMELNLPAIKGIGGAPLYLIDRFGEGSSIYDIDFVYLEGVERNPVGAGLKVIDHLTHNVYRGRMVYWANFYEKLFNFREARYFDIKGEYTGLTSKAMSAPDGMIRIPLNEESSKGAGQIEEFLMQFNGEGIQHVAFLTDDLVKTWDALKKIGMRFMTAPGDTYYEMLEGRLPDHGEPVDQLQARGILLDGSSVEGDKRLLLQIFSETLMGPVFFEFIQRKGDDGFGPDSFKVLFEQVERDQVRRGVLTAD a recorded Turnover greater than or equal to 0.2?
Data returned: -1

Data request: Has 26 (protein, mutant HPPD polypeptide) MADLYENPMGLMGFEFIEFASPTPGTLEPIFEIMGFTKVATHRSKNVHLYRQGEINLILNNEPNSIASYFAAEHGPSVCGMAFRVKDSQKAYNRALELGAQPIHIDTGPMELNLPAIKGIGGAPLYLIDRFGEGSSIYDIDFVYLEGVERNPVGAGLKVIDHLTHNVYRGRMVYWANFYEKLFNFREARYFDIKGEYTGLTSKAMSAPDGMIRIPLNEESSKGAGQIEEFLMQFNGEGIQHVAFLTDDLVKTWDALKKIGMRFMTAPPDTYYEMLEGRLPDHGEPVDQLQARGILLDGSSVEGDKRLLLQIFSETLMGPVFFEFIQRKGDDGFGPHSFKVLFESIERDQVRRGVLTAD a recorded Turnover greater than or equal to 0.2?
Data returned: 1
